Target: p38a activated, mitogen-activated protein kinase-activated protein kinase 2 (MAPKAP-K2 or MK2) enzyme (Homo sapiens (Human), UniProt P49137)
Sequence (P49137 whole entry): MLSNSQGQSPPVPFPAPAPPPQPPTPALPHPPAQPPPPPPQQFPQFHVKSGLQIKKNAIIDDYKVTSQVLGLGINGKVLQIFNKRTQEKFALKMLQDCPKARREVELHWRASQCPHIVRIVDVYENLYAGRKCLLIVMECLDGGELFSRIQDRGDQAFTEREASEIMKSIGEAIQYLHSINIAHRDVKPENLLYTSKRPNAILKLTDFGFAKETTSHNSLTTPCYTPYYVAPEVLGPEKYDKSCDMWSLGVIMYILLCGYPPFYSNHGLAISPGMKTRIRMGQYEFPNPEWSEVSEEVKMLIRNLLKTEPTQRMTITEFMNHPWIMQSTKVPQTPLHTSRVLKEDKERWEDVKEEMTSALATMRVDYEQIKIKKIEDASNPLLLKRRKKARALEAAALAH
Assay: MK2 Omnia continuous-read kinase assay for compound potency
Details: [MK-2]=0.4 nM, [ATP]=10 μM, [ST3-Sox]=10 μM; room temperature
reported.metric: IC50 (nM)

| compound | reported.metric | quantity.unit | obs.value |
| --- | --- | --- | --- |
| C#Cc1cc(-c2ccc3c(ccc4sc5c(c43)NC[C@@H](C)NC5=O)n2)nc(N2CCN(C)CC2)n1 [Example I-59] | IC50 | nM | 3 |
| C=Cc1nc(C)cn1-c1ccc2c(ccc3sc4c(c32)NC[C@@H](C)NC4=O)n1 [Example I-206] | IC50 | nM | 4 |
| C=Cc1cc(-c2ccc3c(ccc4sc5c(c43)NC[C@@H](C)NC5=O)n2)cc(CO)n1 [Example I-99] | IC50 | nM | 2 |
| [2H]c1c(C=C)ncc(C([2H])([2H])[2H])c1-c1ccc2c(ccc3sc4c(c32)NC[C@@H](C)NC4=O)n1 [Example I-249] | IC50 | nM | 4 |

(I) C#Cc1cc(-c2ccc3c(ccc4sc5c(c43)NC[C@@H](C)NC5=O)n2)cc(N2CCN(CC)CC2)n1 [Example I-174]
(II) C=Cc1cc(-c2ccc3c(ccc4sc5c(c43)NC[C@@H](C)NC5=O)n2)cc(N2CCN(CC)CC2)n1 [Example I-173]
// which entry reports the smaller IC50, I or II ? Please respond with the label that marks your chosen entry.
II
